Cited source for all entries: PubChem BioAssay (NCI)

Each entry below carries its recorded growth.
- Tested on: BT-549 breast
- method-notes: NCI-60 one-dose screen, 48 h (100 = growth as untreated, 0 = no growth, -100 = all killed)
- run-conditions: 10 µM unless noted
Compounds without any hit were thinned out: in the full panel of roughly 83,000, 20% have a hit.
Numbers only here, please. The scale is %.

A selection of reference data follows.
compound	unit-spec	endpoint-value
CC(C)NS(=O)(=O)c1cccc(-c2ccc3c(=O)n(CCCN)c4c(c3c2)C(=O)c2ccccc2-4)c1	%	99.8
CN(CCC#N)C(=O)Nc1ccccc1	%	102
Cc1ccccc1NC(=O)c1sc2nc(C)c(C(C)O)cc2c1N (centres undefined)	%	57.8
CC1(C)Cc2c(Br)c(Br)c(Br)c(OCC(O)CN3CCOCC3)c2O1 (centres undefined)	%	78
CCCCn1c(=O)c(/C=C/C(=O)/C=C/c2cc3ccccc3n(CCCC)c2=O)cc2ccccc21	%	-54.5
C#C[C@@]1(O)[C@@H](CO)O[C@@H](n2ccc3c(N)ncnc32)[C@@H]1O	%	-8.06

Noted for `NS(=O)(=O)c1ccc(-n2ncc(NC(=O)Nc3ccc(S(=O)(=O)Nc4nccs4)cc3)c2-c2ccccc2)cc1` : its growth reads 103

Lab book: growth of `O=C(Nc1ccc2ncnc(Nc3cccc(C(F)(F)F)c3)c2c1)c1cccs1` noted as 71.8

Lab book: growth of `O=C(O)c1cn(C2CC2)c2cc(N3CCN(C(=O)CSc4nnc(-c5ccc(Cl)cc5)n4-c4ccccc4)CC3)c(F)cc2c1=O` noted as 99.1
